Target: T1, recombinant rat MASP1 (amino acids 302-704, C-terminal His Tag) (rat, UniProt Q8CHN8 302-704)
T1 sequence: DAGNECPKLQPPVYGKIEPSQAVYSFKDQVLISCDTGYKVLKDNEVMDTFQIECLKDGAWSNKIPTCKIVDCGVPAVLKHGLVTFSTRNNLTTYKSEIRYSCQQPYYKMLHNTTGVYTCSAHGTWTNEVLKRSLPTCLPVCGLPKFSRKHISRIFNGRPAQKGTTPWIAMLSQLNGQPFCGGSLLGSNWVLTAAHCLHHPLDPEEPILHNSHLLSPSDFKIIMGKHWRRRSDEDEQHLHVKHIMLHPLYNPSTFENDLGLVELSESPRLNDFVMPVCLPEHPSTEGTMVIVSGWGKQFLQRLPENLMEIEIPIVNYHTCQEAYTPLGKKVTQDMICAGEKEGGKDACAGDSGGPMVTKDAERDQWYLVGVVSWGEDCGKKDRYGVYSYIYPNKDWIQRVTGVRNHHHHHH
Assay: cell-based or functional assay
*1 amine or outer side, *2 acyl side, *3 side chain or, on linkers, in order; H or OH if unused. Bridges are numbered along the chain shown (N, C = ends). [ ]: non-standard residue; d: D form. Oic = O=C(O)[C@@H]1C[C@@H]2CCCC[C@@H]2N1; Adipoyl = O=C(CCCCC(=O)[*:2])[*:1]; tBuAla = CC(C)(C)C[C@H](N)C(=O)O; Pen = CC(C)(S)[C@H](N)C(=O)O; Dap = NC[C@H](N)C(=O)O; Ahx = NCCCCCC(=O)O; Sar = CNCC(=O)O
Field 'label' (enum: 1 / 0). Set to 1 when rat MASP1 IC50 is strictly under 200 nM; else 0.

binder	label_class
cyclo([Ahx]GICSRS[tBuAla]PPI[Pen]IPD) (disulfide 4-12; also: TFA salt) [Example 28: (Ahx)**-GIC+SRS-((tBu)A)-PPI-(Pen)+-IPD**]	1
cyclo([Dap][Dap]ICSRSLP[Oic]I[Pen]IP) (disulfide 4-12; also: TFA salt) [Example 89: (Dap)**-(Dap)-IC+SRSLP-(Oic)-I-(Pen)+-IP**]	0
cyclo(ICSRS[tBuAla]PPI[Pen]IPP) (disulfide 2-10; also: TFA salt) [Example 58: I**C+SRS-((tBu)A)-PPI-(Pen)+-IPP**]	1
cyclo([Ahx]ICSRS[tBuAla]PPI[Pen]I) (disulfide 3-11; also: TFA salt) [Example 52: (Ahx)**-IC+SRS-((tBu)A)-PPI-(Pen)+-I**]	1
Adipoyl-ICSRS[tBuAla]PPI[Pen]IPD[Dap]-NH2 (lactam (positions not given here); disulfide 2-10; not fully specified (bridges); also: TFA salt) [Example 60: (Adipic acid)**-IC+SRS-((tBu)A)-PPI-(Pen)+-IPD-(Dap)++-NH2]	0

Qu. Say whether its rat MASP1 IC50 is strictly beneath 200 nM. Entry: cyclo(AGGICSRSLP[Oic]I[Pen]IPD) (disulfide 5-13; also: TFA salt) [Example 92: A**GGIC+SRSLP-(Oic)-I-(Pen)+-IPD**]
Ans. 1

Qu. Say whether its rat MASP1 IC50 is strictly beneath 200 nM. Entry: cyclo([Ahx][Sar]ICSRS[tBuAla]PPI[Pen]IP) (disulfide 4-12; also: TFA salt) [Example 54: (Ahx)**-((N-Me)G)-IC+SRS-((tBu)A)-PPI-(Pen)+-IP**]
Ans. 1

Qu. Say whether its rat MASP1 IC50 is strictly beneath 200 nM. Entry: cyclo([Ahx]AICSRS[tBuAla]PPI[Pen]IP) (disulfide 4-12; also: TFA salt) [Example 53: (Ahx)**-AIC+SRS-((tBu)A)-PPI-(Pen)+-IP**]
Ans. 1

Qu. Say whether its rat MASP1 IC50 is strictly beneath 200 nM. Entry: cyclo(AGGICSRSLP[Oic]I[Pen]IP[dD]) (disulfide 5-13; also: TFA salt) [Example 98: A**GGIC+SRSLP-(Oic)-I-(Pen)+-IPd**]
Ans. 1

Qu. Say whether its rat MASP1 IC50 is strictly beneath 200 nM. Entry: cyclo([Ahx][Sar]ICSRS[tBuAla]PPI[Pen]I) (disulfide 4-12; also: TFA salt) [Example 64: (Ahx)**-((N-Me)G)-IC+SRS-((tBu)A)-PPI-(Pen)+-I**]
Ans. 1

All values here come from patent US20240010684A1.
